B1: Paraneoplastic antigen-like protein 5 (Homo sapiens), Q96PV4 (parent)
chain: MALTLLEDWCKGMDMDPRKALLIVGIPMECSEVEIQDTVKAGLQPLCAYRVLGRMFRREDNAKAVFIELADTVNYTTLPSHIPGKGGSWEVVVKPRNPDDEFLSRLNYFLKDEGRSMTDVARALGCCSLPAESLDAEVMPQVRSPPLEPPKESMWYRKLKVFSGTASPSPGEETFEDWLEQVTEIMPIWQVSEVEKRRRLLESLRGPALSIMRVLQANNDSITVEQCLDALKQIFGDKEDFRASQFRFLQTSPKIGEKVSTFLLRLEPLLQKAVHKSPLSVRSTDMIRLKHLLARVAMTPALRGKLELLDQRGCPPNFLELMKLIRDEEEWENTEAVMKNKEKPSGRGRGASGRQARAEASVSAPQATVQARSFSDSSPQTIQGGLPPLVKRRRLLGSESTRGEDHGQATYPKAENQTPGREGPQAAGEELGNEAGAGAMSHPKPWET

Variants of: B1
Experimental context: with aapk1_human PRKAA1, Q13131
Sequence (Q13131 whole entry, looked up): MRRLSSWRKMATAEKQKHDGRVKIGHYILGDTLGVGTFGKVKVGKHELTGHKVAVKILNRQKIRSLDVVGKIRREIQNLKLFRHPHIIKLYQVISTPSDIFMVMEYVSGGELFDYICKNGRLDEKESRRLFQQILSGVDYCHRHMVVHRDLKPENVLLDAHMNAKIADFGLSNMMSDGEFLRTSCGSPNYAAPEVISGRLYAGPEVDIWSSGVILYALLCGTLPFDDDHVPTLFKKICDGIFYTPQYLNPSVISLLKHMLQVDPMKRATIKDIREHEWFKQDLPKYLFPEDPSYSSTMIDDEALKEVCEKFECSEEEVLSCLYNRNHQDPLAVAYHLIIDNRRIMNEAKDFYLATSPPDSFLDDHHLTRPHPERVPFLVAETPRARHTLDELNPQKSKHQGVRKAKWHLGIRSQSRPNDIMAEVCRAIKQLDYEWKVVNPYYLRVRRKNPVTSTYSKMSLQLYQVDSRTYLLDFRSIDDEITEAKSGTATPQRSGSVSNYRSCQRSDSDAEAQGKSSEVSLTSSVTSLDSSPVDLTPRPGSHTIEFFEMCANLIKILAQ
Reported property: effect of a mutation on the interaction

>>> print(df.to_string())
   variant_label                        reported_property  experimental_result
0          T261A  effect of a mutation on the interaction       with no effect
1          R312Q  effect of a mutation on the interaction       with no effect
2          V274M  effect of a mutation on the interaction       with no effect
